- Protocol Summary: skin-PAMPA permeability assay (gradient-pH, UPLC-DAD)
- Study Conditions: PAMPA, pH 7.4, log Pe, optimized assay conditions (4 h incubation, stirring); measured at the pH corresponding to the neutral form; acceptor pH 7.4
Observable: Papp at 4 h, 50 μM (×10⁻⁶ cm/s)
Report as a plain number; the unit ×10⁻⁶ cm/s is understood.

Sample records with Papp at 4 h, 50 μM:
Consider the compound CC(=O)OCC(=O)[C@@]12OC(C)(C)O[C@@H]1C[C@H]1[C@@H]3C[C@H](F)C4=CC(=O)C=C[C@]4(C)[C@@]3(F)[C@@H](O)C[C@@]12C [Fluocinonide] and give its recorded Papp at 4 h, 50 μM. 4.17

Determine its reported Papp at 4 h, 50 μM: Nc1ccc(O)c([N+](=O)[O-])c1 25.7

Please indicate Papp at 4 h, 50 μM recorded for OCc1ccc(O)cc1 [4-Hydroxybenzyl alcohol] 1.41

In the following, a different compound is considered.
Assign Papp at 4 h, 50 μM to the following record: O=C(O)Cc1ccccc1Nc1c(Cl)cccc1Cl 162
